Consider the following compounds; for each one, report its Kd.
System: dsDNA (DNA, hairpin) TATAGCTATATTTTTTTATAGCTATA
Assay: fluorescence polarization (intrinsic pomalidomide fluorescence)
Conditions: 100 mM KCl; 10 mM Li-cacodylate, pH 7.4; ligand 0.2 µM; per site

Item Cc1oc2nc1-c1nc(c(CCCNC(=O)CNc3cccc4c3C(=O)N(C3CCC(=O)NC3=O)C4=O)o1)-c1nc(co1)C(=O)N[C@@H](CCCCN)c1nc(co1)-c1nc(co1)-c1nc(co1)C(=O)N[C@H]2CCCCN (stereo partly shown) has what recorded Kd?
> 1.2 µM

Lookup Cc1oc2nc1-c1nc(c(CCCNC(=O)CNc3cccc4c3C(=O)N(C3CCC(=O)N(C)C3=O)C4=O)o1)-c1nc(co1)C(=O)N[C@@H](CCCCN)c1nc(co1)-c1nc(co1)-c1nc(co1)C(=O)N[C@H]2CCCCN (stereo partly shown)
> 1.2 µM

Lookup Cc1oc2nc1-c1nc(c(CCCNC(=O)CCOCCOCCOCCOCCNc3cccc4c3C(=O)N(C3CCC(=O)NC3=O)C4=O)o1)-c1nc(co1)C(=O)N[C@@H](CCCCN)c1nc(co1)-c1nc(co1)-c1nc(co1)C(=O)N[C@H]2CCCCN (stereo partly shown)
> 1.2 µM

Lookup Cc1oc2nc1-c1nc(c(CCCNC(=O)CCOCCOCCOCCOCCNc3cccc4c3C(=O)N(C3CCC(=O)N(C)C3=O)C4=O)o1)-c1nc(co1)C(=O)N[C@@H](CCCCN)c1nc(co1)-c1nc(co1)-c1nc(co1)C(=O)N[C@H]2CCCCN (stereo partly shown)
> 1.2 µM
